Entries and their mass density values follow.
- EXPERIMENTAL_CONDITIONS: 333.15 K; 101.33 kPa; Liquid; Vibrating tube method
# number only, unit kg/m3 dropped from output

                                   compound  unit_symbol  quantitative_readout
0  CCCCCCCC/C=C\CCCCCCCCCCCC(=O)OC [methyl (Z)-13-docosenoate]        kg/m3                 842.4
1  CC/C=C\C/C=C\C/C=C\CCCCCCCC(=O)OCC [ethyl 9,12,15-octadecatrienoate]        kg/m3                 863.5
2  CCCCCCCC/C=C\CCCCCCCCCC(=O)OC [methyl cis-11-eicosenoate]        kg/m3                 845.2

# return recorded mass density for entry CCCCCCCCCCCCCCCCCCCC(=O)OC [methyl eicosanoate]
834.9

* * *

- EXPERIMENTAL_CONDITIONS: 338.15 K; 101.33 kPa; Liquid; Vibrating tube method
± gives the expanded uncertainty stated by the source.
QUANTITY: mass density
For clarity, give the value followed by its unit.

>>> print(df.to_string())
                                   molecule      quantity           result
0  CCCCCCCC/C=C\CCCCCCCCCCCC(=O)OC [methyl (Z)-13-docosenoate]  mass density    839 ± 1 kg/m3
1  CCCCC/C=C\C/C=C\CCCCCCCC(=O)OCC [ethyl linoleate]  mass density  849.7 ± 1 kg/m3
2  CC/C=C\C/C=C\C/C=C\CCCCCCCC(=O)OC [methyl (Z,Z,Z)-9,12,15-octadecatrienoate]  mass density  868.6 ± 1 kg/m3
3  CCCCCCCCCCCCCCCCCCCC(=O)OCC [ethyl eicosanoate]  mass density  827 ± 1.2 kg/m3

Proceeding to the next molecule to report its mass density.
# return recorded mass density for entry CC/C=C\C/C=C\C/C=C\CCCCCCCC(=O)OCC [ethyl 9,12,15-octadecatrienoate]
859.9 ± 1 kg/m3

* * *

- EXPERIMENTAL_CONDITIONS: 323.15 K; 101.33 kPa; Liquid; Vibrating tube method
QUANTITY: mass density (kg/m3)
# number only, unit kg/m3 dropped from output

In [3]: df
Out[3]:
                                   compound      quantity  unit_symbol  quantitative_readout
0  CC/C=C\C/C=C\C/C=C\CCCCCCCC(=O)OC [methyl (Z,Z,Z)-9,12,15-octadecatrienoate]  mass density        kg/m3                 879.6

# return recorded mass density for entry CCCCC/C=C\C/C=C\CCCCCCCC(=O)OCC [ethyl linoleate]
860.6

# return recorded mass density for entry CCCCCC/C=C\CCCCCCCC(=O)OC [methyl (Z)-9-hexadecenoate]
846.3

# return recorded mass density for entry CCCCCCCCCCCCCCCCCCCC(=O)OCC [ethyl eicosanoate]
837.7

# return recorded mass density for entry CC/C=C\C/C=C\C/C=C\CCCCCCCC(=O)OCC [ethyl 9,12,15-octadecatrienoate]
870.9

# return recorded mass density for entry CCCCCCCC/C=C\CCCCCCCCCC(=O)OC [methyl cis-11-eicosenoate]
852.3

# return recorded mass density for entry CCCCCCCC/C=C\CCCCCCCCCCCC(=O)OC [methyl (Z)-13-docosenoate]
849.4

# return recorded mass density for entry CCCCCCCCCCCCCCCCCCCC(=O)OC [methyl eicosanoate]
842.3
